# Test system: ICR (CD-1) mice
# methodDescription: In vivo toxicity in mice (SC, IN, IP routes)
# settings: SC, 3 doses (1hr, 12hr, 24hr); head doses: RN7-IN10, RN7-IN8 20 mg/kg; RN7-IN9, RN7-IN6 10 mg/kg; day 7; mean±SD, 4 mice
Below, each of the substances is paired with its reported Erythrocytes, RBC value.

FLGGLIKWWPWRR-NH2 [RN7-IN6, hybrid peptide of ranalexin (residues 1-7) and indolicidin (residues 8-13)] | 9.59±0.92 10^6/mm^3
FLGGLIKWPWWPWRR-NH2 [RN7-IN8, hybrid peptide of ranalexin (residues 1-7) and indolicidin (residues 6-13)] | 9.17±0.83 10^6/mm^3
FLGGLIKWKWPWWPWRR-NH2 [RN7-IN10, hybrid peptide of ranalexin (residues 1-7) and indolicidin (residues 4-13)] | 8.04±1.18 10^6/mm^3

Query: For the substance shown here, FLGGLIKKWPWWPWRR-NH2 [RN7-IN9, hybrid peptide of ranalexin (residues 1-7) and indolicidin (residues 5-13)] , give the reported Erythrocytes, RBC.
Result: 9.22±0.98 10^6/mm^3
